target: BRM (Homo sapiens, UniProt P51531); construct: Western Blot Screen of BRM Degradation in SW1573 Cells; endogenous in cells; host or cells: SW1573 cells; test: BRM degradation (Dmax and DC50) in SW1573 cells, Western blot screen / In-Cell Western screen; format: cell-based; details: overnight (18-20 hours) treatment
Sequence (P51531 whole entry): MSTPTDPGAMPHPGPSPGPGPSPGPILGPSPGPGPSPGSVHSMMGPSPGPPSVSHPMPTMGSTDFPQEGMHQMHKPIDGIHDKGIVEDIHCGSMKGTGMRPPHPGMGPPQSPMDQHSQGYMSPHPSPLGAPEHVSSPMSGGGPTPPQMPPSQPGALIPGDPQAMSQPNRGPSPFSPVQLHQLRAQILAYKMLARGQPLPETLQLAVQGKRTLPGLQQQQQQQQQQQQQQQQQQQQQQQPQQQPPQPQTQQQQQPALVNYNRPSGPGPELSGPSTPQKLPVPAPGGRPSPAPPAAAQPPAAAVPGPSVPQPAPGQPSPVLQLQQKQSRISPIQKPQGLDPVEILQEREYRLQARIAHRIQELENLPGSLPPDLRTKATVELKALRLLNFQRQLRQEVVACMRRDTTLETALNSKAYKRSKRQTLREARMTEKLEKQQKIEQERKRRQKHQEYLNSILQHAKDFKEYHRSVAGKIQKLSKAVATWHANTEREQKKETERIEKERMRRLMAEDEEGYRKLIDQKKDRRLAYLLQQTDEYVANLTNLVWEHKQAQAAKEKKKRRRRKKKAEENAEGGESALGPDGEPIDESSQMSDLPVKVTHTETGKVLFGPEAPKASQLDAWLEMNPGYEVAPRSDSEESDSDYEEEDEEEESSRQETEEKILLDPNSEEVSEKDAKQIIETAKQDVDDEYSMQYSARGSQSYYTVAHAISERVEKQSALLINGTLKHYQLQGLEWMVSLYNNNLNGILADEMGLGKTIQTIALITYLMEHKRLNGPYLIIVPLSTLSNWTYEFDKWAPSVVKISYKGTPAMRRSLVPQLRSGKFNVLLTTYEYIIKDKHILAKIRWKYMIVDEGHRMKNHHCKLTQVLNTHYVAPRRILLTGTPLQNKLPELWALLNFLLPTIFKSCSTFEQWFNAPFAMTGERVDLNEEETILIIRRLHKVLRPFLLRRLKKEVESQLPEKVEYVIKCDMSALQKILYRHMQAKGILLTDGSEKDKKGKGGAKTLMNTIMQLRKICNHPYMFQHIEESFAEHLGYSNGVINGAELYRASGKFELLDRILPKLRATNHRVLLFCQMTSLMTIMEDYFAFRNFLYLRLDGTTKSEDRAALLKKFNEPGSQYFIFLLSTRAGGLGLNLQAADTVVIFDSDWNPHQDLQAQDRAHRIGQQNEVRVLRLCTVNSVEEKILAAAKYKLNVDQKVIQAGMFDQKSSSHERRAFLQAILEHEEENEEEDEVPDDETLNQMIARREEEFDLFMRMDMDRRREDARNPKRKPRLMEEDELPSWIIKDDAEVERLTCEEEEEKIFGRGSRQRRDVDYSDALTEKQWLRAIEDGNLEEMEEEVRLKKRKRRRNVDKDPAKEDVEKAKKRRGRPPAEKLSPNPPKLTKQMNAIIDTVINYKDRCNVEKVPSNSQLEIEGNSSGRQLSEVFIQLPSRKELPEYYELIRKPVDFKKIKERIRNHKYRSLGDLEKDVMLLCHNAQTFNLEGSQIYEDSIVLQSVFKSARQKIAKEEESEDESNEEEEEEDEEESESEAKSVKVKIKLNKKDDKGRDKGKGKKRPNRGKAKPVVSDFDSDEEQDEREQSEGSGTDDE
quantity_measured: DC50

[[record]]
molecular_string = "Cc1ncsc1-c1ccc([C@H](C)NC(=O)[C@@H]2C[C@@H](O)CN2C(=O)[C@@H](c2cc(N3CCC(CN4CCC(O[C@H]5C[C@H](N6CCC(Cc7cn(-c8cc(-c9ccccc9O)nnc8N)cn7)CC6)C5)CC4)CC3)no2)C(C)C)cc1"
quantity_measured = "DC50"
recorded_measurement = "10 to 30 nM"


API: value(readout= DC50, system= BRM (Homo sapiens, UniProt P51531), query= CC(C)[C@@H](C(=O)N1C[C@H](O)C[C@H]1C(=O)N[C@@H](C)c1ccc(C#N)cc1)c1cc(N2CCC(OCCN3CCC(O[C@H]4C[C@H](Oc5cc(N6C7CCC6CN(c6cc(-c8ccccc8O)nnc6N)C7)ccn5)C4)CC3)CC2)no1 )
< 2.5 nM

====

target: BRM (Homo sapiens, UniProt P51531); construct: Western Blot Screen of BRM Degradation in SW1573 Cells; endogenous in cells; host or cells: SW1573 cells; assay: BRM degradation (Dmax and DC50) in SW1573 cells, Western blot screen / In-Cell Western screen; type: cell-based; conditions: overnight (18-20 hours) treatment
quantity_measured: DC50

Known results for compounds:
[[record]]
compound = "Cc1ncsc1-c1ccc([C@H](C)NC(=O)[C@@H]2C[C@@H](O)CN2C(=O)[C@@H](c2cc(N3CCC(CN4CCC(O[C@H]5C[C@H](N6CCN(CC7C8CCC7CN(c7cc(-c9ccccc9O)nnc7N)C8)CC6)C5)CC4)CC3)no2)C(C)C)cc1 (stereo partly shown)"
quantity_measured = "DC50"
recorded_measurement = "2.5 to 10 nM"

[[record]]
compound = "Cc1ncsc1-c1ccc([C@H](C)NC(=O)[C@@H]2C[C@@H](O)CN2C(=O)[C@@H](c2cc(N3CCC(OC4CCN(C[C@H]5C[C@H](N6CCOC7(CCN(c8cc(-c9ccccc9O)nnc8N)CC7)C6)C5)CC4)CC3)no2)C(C)C)cc1"
quantity_measured = "DC50"
recorded_measurement = "< 2.5 nM"


Suppose we examine the compound Cc1ncsc1-c1ccc([C@H](C)NC(=O)[C@@H]2C[C@@H](O)CN2C(=O)[C@@H](c2cc(N3CCC(CN4CCC(O[C@H]5C[C@H](N6CCC([C@@H](C)n7cc(-c8cc(-c9ccccc9O)nnc8N)cn7)CC6)C5)CC4)CC3)no2)C(C)C)cc1 (single isomer, unassigned) ; what DC50 value has been reported?
< 2.5 nM

Next up: Cc1ncsc1-c1ccc([C@H](C)NC(=O)[C@@H]2C[C@@H](O)CN2C(=O)[C@@H](c2cc(N3CCC(CN4CCC(O[C@H]5C[C@H](CN6CCC(N7C8CCC7CN(c7cc(-c9ccccc9O)nnc7N)C8)CC6)C5)CC4)CC3)no2)C(C)C)cc1
< 2.5 nM

====

Some compounds, each annotated with its measured DC50.
target: BRM (Homo sapiens, UniProt P51531); construct: Western Blot Screen of BRM Degradation in SW1573 Cells; endogenous in cells; host or cells: SW1573 cells; assay: BRM degradation (Dmax and DC50) in SW1573 cells, Western blot screen / In-Cell Western screen; assay type: cell-based; conditions: overnight (18-20 hours) treatment

Known results for compounds:
[[record]]
compound = "Cc1ncsc1-c1ccc([C@H](C)NC(=O)[C@@H]2C[C@@H](O)CN2C(=O)[C@@H](c2cc(N3CCC(CN4CCC5(CC4)CC(Oc4cc(N6C7CCC6CN(c6cc(-c8ccccc8O)nnc6N)C7)ccn4)C5)CC3)no2)C(C)C)cc1 [Compound 29]"
recorded_measurement = "< 2.5 nM"

[[record]]
compound = "Cc1ncsc1-c1ccc([C@H](C)NC(=O)[C@@H]2C[C@@H](O)CN2C(=O)[C@H](c2cc(N3CCN(C(=O)[C@H]4C[C@H](Oc5cc(N6C7CCC6CN(c6cc(-c8ccccc8O)nnc6N)C7)ccn5)C4)CC3)no2)C(C)C)cc1 [Compound 118]"
recorded_measurement = "< 2.5 nM"

[[record]]
compound = "CC(C)[C@@H](C(=O)N1C[C@H](O)C[C@H]1C(=O)N[C@@H](C)c1ccc(-c2scnc2C#CCOCCOCCOCCOc2cc(N3C4CCC3CN(c3cc(-c5ccccc5O)nnc3N)C4)ccn2)cc1)N1Cc2ccccc2C1=O [Compound 72]"
recorded_measurement = "≥ 30 nM"

[[record]]
compound = "CC(C)[C@@H](C(=O)N1C[C@H](O)C[C@H]1C(=O)N[C@@H](C)c1ccc(C#N)cc1)c1cc(N2CCC(CN3CC[C@@H](Oc4cc(N5C6CCC5CN(c5cc(-c7ccccc7O)nnc5N)C6)ccn4)[C@@H](F)C3)CC2)no1 [Compound 157]"
recorded_measurement = "< 2.5 nM"

[[record]]
compound = "Cc1ncsc1-c1ccc([C@H](C)NC(=O)[C@@H]2C[C@@H](O)CN2C(=O)[C@@H](c2cc(N3CCC(CN4CCC(O[C@H]5C[C@H](N6CCC7(CC6)CC(N6C8CCC6CN(c6cc(-c9ccccc9O)nnc6N)C8)C7)C5)CC4)CC3)no2)C(C)C)cc1 [Compound 44]"
recorded_measurement = "< 2.5 nM"


Suppose we examine the compound Cc1ncsc1-c1ccc([C@H](C)NC(=O)[C@@H]2C[C@@H](O)CN2C(=O)[C@@H](c2cc(N3CCC(CN4CCC(O[C@H]5C[C@H](N6CCN(CC7(O)CCN(c8cc(-c9ccccc9O)nnc8N)CC7)CC6)C5)CC4)CC3)no2)C(C)C)cc1 [Compound 57] ; what DC50 value has been reported?
< 2.5 nM

Next up: CC(C)[C@H](C(=O)N1C[C@H](O)C[C@H]1C(=O)N[C@@H](C)c1ccc(Cl)cc1)c1cc(N2CCC(CN3CCC(O[C@H]4C[C@H](Oc5cc(N6C7CCC6CN(c6cc(-c8ccccc8O)nnc6N)C7)ccn5)C4)CC3)CC2)no1 [Compound 46]
≥ 30 nM

Next up: Cc1ncsc1-c1ccc([C@H](C)NC(=O)[C@@H]2C[C@@H](O)CN2C(=O)[C@@H](c2cc(N3CCC(CN4CCCC5(CC(N6CCO[C@H](CN7C8CCC7CN(c7cc(-c9ccccc9O)nnc7N)C8)C6)C5)C4)CC3)no2)C(C)C)cc1 (stereo partly shown) [Compound 142]
< 2.5 nM

Next up: Cc1ncsc1-c1ccc([C@H](C)NC(=O)[C@@H]2C[C@@H](O)CN2C(=O)[C@@H](c2cc(N3CCC(CN4CC[C@@H](OC(=O)N5CCN(c6cc(-c7ccccc7O)nnc6N)CC5)[C@H](F)C4)CC3)no2)C(C)C)cc1 [Compound 102]
2.5 to 10 nM

Next up: Cc1ncsc1-c1ccc([C@H](C)NC(=O)[C@@H]2C[C@@H](O)CN2C(=O)[C@@H](c2cc(N3CCC(CN4CCC5(CC4)CC(N4CCN(C)[C@H](CN6C7CCC6CN(c6cc(-c8ccccc8O)nnc6N)C7)C4)C5)CC3)no2)C(C)C)cc1 [Compound 132]
< 2.5 nM

Next up: Cc1ncsc1-c1ccc([C@H](C)NC(=O)[C@@H]2C[C@@H](O)CN2C(=O)[C@@H](c2cc(N3CCC(CN4CCC5(CCC5N5CCO[C@H](CN6C7CCC6CN(c6cc(-c8ccccc8O)nnc6N)C7)C5)CC4)CC3)no2)C(C)C)cc1 (stereo partly shown) [Compound 143]
< 2.5 nM

Next up: CC(C)[C@@H](C(=O)N1C[C@H](O)C[C@H]1C(=O)N[C@@H](C)c1ccc(C#N)cc1)c1cc(N2CCC(CN3CCC(O[C@H]4C[C@H](Oc5cc(N6CC7CCC(C6)N7c6cc(-c7ccccc7O)nnc6N)ccn5)C4)CC3)CC2)no1 [Compound 15]
2.5 to 10 nM

Next up: Cc1ncsc1-c1ccc([C@H](C)NC(=O)[C@@H]2C[C@@H](O)CN2C(=O)[C@@H](c2cc(N3CCC(CN4CCC(N[C@H]5C[C@H](Oc6cc(N7C8CCC7CN(c7cc(-c9ccccc9O)nnc7N)C8)ccn6)C5)CC4)CC3)no2)C(C)C)cc1 [Compound 10]
< 2.5 nM

Next up: CC(C)[C@@H](C(=O)N1C[C@H](O)C[C@H]1C(=O)N[C@@H](C)c1ccc(-c2ccnn2C)cc1)c1cc(N2CCC(CN3CCC(O[C@H]4C[C@H](N5CCC(C(C)n6cc(C#Cc7cc(-c8ccccc8O)nnc7N)cn6)CC5)C4)CC3)CC2)no1 (stereo partly shown) [Compound 42]
< 2.5 nM

Next up: Cc1ncsc1-c1ccc([C@H](C)NC(=O)[C@@H]2C[C@@H](O)CN2C(=O)[C@@H](c2cc(N3CCC(CN4CCC(O[C@H]5C[C@H](N6CCC(C(=O)N7C8CCC7CN(c7cc(-c9ccccc9O)nnc7N)C8)CC6)C5)CC4)CC3)no2)C(C)C)cc1 [Compound 25]
< 2.5 nM

Next up: Cc1ncsc1-c1ccc([C@H](C)NC(=O)[C@@H]2C[C@@H](O)CN2C(=O)[C@@H](c2cc(N3CCC(CN4CCC5(CC4)CC(N4C[C@H](CN6C7CCC6CN(c6cc(-c8ccccc8O)nnc6N)C7)O[C@H](C)C4)C5)CC3)no2)C(C)C)cc1 [Compound 73]
< 2.5 nM

Data provenance is patent US20250059198A1.
